Cited source for all entries: patent US20220041606A1

system: human mAChR M1 (Homo sapiens)
Construct: host or cells: CHO-K1 cells (ATCC), stably transfected using Lipofectamine2000
Sequence (P11229 whole entry): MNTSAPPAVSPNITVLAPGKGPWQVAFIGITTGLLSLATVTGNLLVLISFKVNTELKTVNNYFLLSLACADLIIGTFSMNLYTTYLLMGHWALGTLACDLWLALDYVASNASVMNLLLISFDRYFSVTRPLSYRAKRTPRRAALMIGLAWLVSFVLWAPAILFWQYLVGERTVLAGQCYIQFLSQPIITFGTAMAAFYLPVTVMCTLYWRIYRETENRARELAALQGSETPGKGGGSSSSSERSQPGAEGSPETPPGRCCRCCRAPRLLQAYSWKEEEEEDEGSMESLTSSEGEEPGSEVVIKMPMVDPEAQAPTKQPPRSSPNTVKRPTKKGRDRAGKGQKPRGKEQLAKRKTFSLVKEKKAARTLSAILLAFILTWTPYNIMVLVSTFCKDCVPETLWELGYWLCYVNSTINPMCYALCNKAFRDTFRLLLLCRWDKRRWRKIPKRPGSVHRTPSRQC
test description: mAChR M1 cell-based functional assay (calcium mobilization), agonist activity upon compound addition
study conditions: CHO-K1 cells expressing hM1; compound alone, before acetylcholine addition
pEC50: −log10 of the molar value.
Listing of entries alongside the reported pEC50.

Worked cases, answers included:
compound	assay readout	reported measurement
O=C(N[C@H]1CCCCC[C@@H]1O)c1cn(Cc2ccc(-c3cscn3)cc2)c(=O)c2cccnc12 [Compound A60]	pEC50	< 5.00
Cn1ccc(-c2ccc(Cn3cc(C(=O)N[C@H]4CCC[C@@H]4O)c4nccnc4c3=O)c(F)c2)n1 [Compound A64]	pEC50	< 5.00
O=C(N[C@H]1CCC[C@@H]1O)c1cn(Cc2ccc(-n3cccn3)cc2)c(=O)c2nccnc12 [Compound A61]	pEC50	< 5.00
Cn1nccc1-c1ccc(Cn2cc(C(=O)N[C@H]3CCOC[C@@H]3O)c3nccn3c2=O)c(F)c1 [Compound B31]	pEC50	< 5.00
Cn1ccc(-c2ccc(Cn3cc(C(=O)N[C@H]4CCCC[C@@H]4O)c4nccn4c3=O)c(F)c2)n1 [Compound B2]	pEC50	5.43
Cc1cc(-c2cc(F)c(Cn3cc(C(=O)N[C@H]4CCC[C@@H]4O)c4ncccc4c3=O)c(F)c2)ccn1 [Compound A38]	pEC50	< 5.00
Cn1ccc(-c2ccc(Cn3cc(C(=O)N[C@H]4CCCCC[C@@H]4O)c4ncn(C)c4c3=O)c(F)c2)n1 [Compound C3]	pEC50	< 5.00
O=C(N[C@H]1CCCC[C@@H]1O)c1cn(Cc2ccc(-n3cccn3)cc2)c(=O)c2nccnc12 [Compound A53]	pEC50	< 5.00

Req: I'm curious: which pEC50 was measured for O=C(N[C@H]1CCOC[C@@H]1O)c1cn(Cc2ccc(-c3cscn3)cc2)c(=O)n2ccnc12 [Compound B17] tested on human mAChR M1 (Homo sapiens)?
Resp: < 5.00

Req: Observed pEC50 on human mAChR M1 (Homo sapiens) for O=C(N[C@H]1CCOC[C@@H]1O)c1cn(Cc2ccc(-n3cccn3)cc2)c(=O)n2ccnc12 [Compound B12] , please.
Resp: 5.22

Req: Find pEC50 (human mAChR M1 (Homo sapiens)) for the entry Cn1ccc(-c2ccc(Cn3cc(C(=O)N[C@H]4CCCCC[C@@H]4O)c4nccnc4c3=O)c(F)c2)n1 [Compound A65]
Resp: < 5.00

Req: Value wanted: pEC50 (human mAChR M1 (Homo sapiens)) of entry Cn1cc(-c2ccc(Cn3cc(C(=O)N[C@H]4CCOC[C@@H]4O)c4ncccc4c3=O)cc2)cn1 [Compound A58]
Resp: 5.28

Req: Query for human mAChR M1 (Homo sapiens): what pEC50 does the record show for Cn1cc(-c2ccc(Cn3cc(C(=O)NC4CCOCC4)c4ncccc4c3=O)c(F)c2)cn1 [Compound A10] ?
Resp: < 5.00

Req: Identify the measured pEC50 of Cn1nccc1-c1ccc(Cn2cc(C(=O)N[C@H]3CCCC[C@@H]3O)c3nccn3c2=O)c(F)c1 [Compound B32] for human mAChR M1 (Homo sapiens).
Resp: < 5.00

Req: Item O=C(N[C@H]1CCCCC[C@@H]1O)c1cn(Cc2ccc(-n3cccn3)cc2)c(=O)c2nccnc12 [Compound A62] with human mAChR M1 (Homo sapiens) - pEC50?
Resp: < 5.00
